From: ChEMBL document CHEMBL4689842

# Tested on: Fibroblast
# measurement-protocol: Multiplex assay against human fibroblast
# Assay type: toxicity, cell-based
# conditions: 12 h, 1 µM, compound concentration 1 uM, replicate 1
assay-readout: Population Pyknosed Nuclei (%)
Write down the value, and be sure its unit follows.

Hi there! I need Population Pyknosed Nuclei (%) for each item below, if you can.
1. NC(=O)c1ccc2nc(-c3ccc(C4(N)CCC4)cc3)c(-c3ccccc3)n2n1
2. CCCc1cc(C)[nH]c(=O)c1CNC(=O)c1cc(-c2ccc(N3CCN(C(C)C)CC3)nc2)cc2c1cnn2C(C)C
3. CCCCCNC(=N)N/N=C/c1c[nH]c2ccc(OC)cc12.O=C(O)/C=C\C(=O)O [TEGASEROD MALEATE]
4. Oc1cccc(-c2nc(N3CCOCC3)c3oc4ncccc4c3n2)c1
5. CCCCN(CC)c1nc(C)nc2c1c(C)cn2-c1c(C)cc(C)cc1C.Cl
6. CN1C(=O)[C@@H](NC(=O)c2cc3ccccc3[nH]2)N=C(c2ccccc2)c2ccccc21 [DEVAZEPIDE]

1: 13%; 2: 31%; 3: 27%; 4: 28%; 5: 31%; 6: 41%

Hi there! I need Population Pyknosed Nuclei (%) for each item below, if you can.
1. N#CCNC(=O)c1ccc(-c2ccnc(Nc3ccc(N4CCOCC4)cc3)n2)cc1
2. N#Cc1cccc(C(=O)Nc2cc(-c3ccccc3)nn2-c2ccccc2)c1
3. Cc1c(Nc2ccc(S(=O)(=O)N3CCN(C)CC3)cc2F)nc2ccc(-c3cnn(C4CC4)c3)cn2c1=O

1: 33%; 2: 30%; 3: 12%

###

# System: U2OS
# measurement-protocol: Multiplex assay against U2OS
# Type: toxicity, cell-based
# conditions: human, 24 h, 10 µM, compound concentration 10 uM, replicate 1
assay-readout: Population Apoptotic (%)
Numbers only, in %.

Would you please look over these solved cases?
{"columns": ["molecular-string", "Population Apoptotic (%)"],
 "data": [
  ["N#CCNC(=O)c1ccc(-c2ccnc(Nc3ccc(N4CCOCC4)cc3)n2)cc1", 61],
  ["CC[C@H](Nc1ncnc2[nH]cnc12)c1nc2cccc(F)c2c(=O)n1-c1ccccc1", 33],
  ["CC(C)[C@H](CO)Nc1nc(Nc2cccc(Cl)c2)c2ncn(C(C)C)c2n1", 67],
  ["C=CC(=O)Nc1cc(-n2c(=O)ccc3cnc4ccc(-c5ccc(NS(C)(=O)=O)cc5)cc4c32)ccc1C", 53]
]}

Consider the compound shown here: Oc1cccc(-c2nc(N3CCOCC3)c3oc4ncccc4c3n2)c1 What is its recorded Population Apoptotic (%)?
54

###

# System: Fibroblast
# measurement-protocol: Multiplex assay against human fibroblast
# Assay type: toxicity, cell-based
# conditions: 48 h, 10 µM, compound concentration 10 uM, replicate 1
# note: exactly 40% is not below, so it is Condition not met; use Condition met for Population Fragmented Nuclei (%) strictly under it

Please review the following examples before continuing.
{"columns": ["compound", "discrete-label"],
 "data": [
  ["N#Cc1cccc(C(=O)Nc2cc(-c3ccccc3)nn2-c2ccccc2)c1", "Condition met"],
  ["N#CCNC(=O)c1ccc(-c2ccnc(Nc3ccc(N4CCOCC4)cc3)n2)cc1", "Condition not met"],
  ["CCCCN(CC)c1nc(C)nc2c1c(C)cn2-c1c(C)cc(C)cc1C.Cl", "Condition not met"],
  ["CC(Cc1ccc(O)c(O)c1)C(C)Cc1ccc(O)c(O)c1 (stereo not drawn) [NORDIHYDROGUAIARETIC ACID]", "Condition met"],
  ["CN1CCN(Cc2ccc(-c3cnc4[nH]cc(-c5ccc6[nH]ccc6c5)c4c3)cc2)CC1", "Condition not met"]
]}

Lab note: next compound to report on.
In plain terms, does C[C@@H](Oc1cc(-n2cnc3ccc(CN4CCN(C)CC4)cc32)sc1C(N)=O)c1ccccc1C(F)(F)F come in under 40% for Population Fragmented Nuclei (%)?
Condition not met

###

# Test system: HEK-293T
# measurement-protocol: Multiplex assay against HEK293T
# Type: toxicity, cell-based
# conditions: human, 12 h, 1 µM, compound concentration 1 uM, replicate 2
assay-readout: Population Normal (%)
One number for each entry, in %.

Would you please look over these solved cases?
{"columns": ["compound", "u", "Population Normal (%)"],
 "data": [
  ["CC[C@H](Nc1ncnc2[nH]cnc12)c1nc2cccc(F)c2c(=O)n1-c1ccccc1 [IDELALISIB]", "%", 96],
  ["N#CCNC(=O)c1ccc(-c2ccnc(Nc3ccc(N4CCOCC4)cc3)n2)cc1 [MOMELOTINIB]", "%", 97],
  ["Cc1ccc(S(=O)(=O)NC2c3ccccc3Oc3ccccc32)cc1", "%", 97],
  ["N#Cc1cccc(C(=O)Nc2cc(-c3ccccc3)nn2-c2ccccc2)c1", "%", 93],
  ["Cc1c(P(=S)(c2ccccc2)c2ccccc2)n2ccccc2[n+]1C/C=C/c1ccccc1.[Br-]", "%", 94],
  ["CCCc1cc(C)[nH]c(=O)c1CNC(=O)c1cc(-c2ccc(N3CCN(C(C)C)CC3)nc2)cc2c1cnn2C(C)C", "%", 96],
  ["C[C@@H](Oc1cc(-n2cnc3ccc(CN4CCN(C)CC4)cc32)sc1C(N)=O)c1ccccc1C(F)(F)F [GSK-461364]", "%", 95]
]}

Consider the compound shown here: Cc1c(Nc2ccc(S(=O)(=O)N3CCN(C)CC3)cc2F)nc2ccc(-c3cnn(C4CC4)c3)cn2c1=O What is its recorded Population Normal (%)?
97

###

For each of the molecules below, state its Population Mitotic Cells (%).
# Tested on: HEK-293T
# measurement-protocol: Multiplex assay against HEK293T
# Format: toxicity, cell-based
# conditions: human, 48 h, 10 µM, compound concentration 10 uM, replicate 2
Give bare numbers, in %.

Would you please look over these solved cases?
{"columns": ["molecule", "u", "Population Mitotic Cells (%)"],
 "data": [
  ["N#Cc1cccc(C(=O)Nc2cc(-c3ccccc3)nn2-c2ccccc2)c1", "%", 36],
  ["C[C@@H](Oc1cc(-n2cnc3ccc(CN4CCN(C)CC4)cc32)sc1C(N)=O)c1ccccc1C(F)(F)F", "%", 20],
  ["Cc1ccc(S(=O)(=O)NC2c3ccccc3Oc3ccccc32)cc1", "%", 87],
  ["CCCCCNC(=N)N/N=C/c1c[nH]c2ccc(OC)cc12.O=C(O)/C=C\\C(=O)O [TEGASEROD MALEATE]", "%", 0],
  ["CC(C)C[C@H](NC(=O)[C@H](Cc1ccccc1)NC(=O)CNC(=O)CNC(=O)[C@@H](N)Cc1ccc(O)cc1)C(=O)O", "%", 82]
]}

Hi there! I need Population Mitotic Cells (%) for each item below, if you can.
1. CN1C(=O)[C@@H](NC(=O)c2cc3ccccc3[nH]2)N=C(c2ccccc2)c2ccccc21 [DEVAZEPIDE]
2. Cl.NC[C@@H]1O[C@H](C23CC4CC(CC(C4)C2)C3)Cc2c1ccc(O)c2O
3. CCCCN(CC)c1nc(C)nc2c1c(C)cn2-c1c(C)cc(C)cc1C.Cl

1. 36
2. 44
3. 63

###

# Tested on: Fibroblast
# measurement-protocol: Multiplex assay against human fibroblast
# Type: toxicity, cell-based
# conditions: 48 h, 1 µM, compound concentration 1 uM, replicate 1
assay-readout: Population Fragmented Nuclei (%)
One number for each entry, in %.

Would you please look over these solved cases?
{"columns": ["compound", "Population Fragmented Nuclei (%)"],
 "data": [
  ["CC(/C=C1\\SC(=S)N(CCCC(=O)Nc2ccc(C(=O)O)c(O)c2)C1=O)=C\\c1ccccc1", 34],
  ["CN(c1cc(C(F)(F)F)nc(OCCC(=O)O)n1)c1cccc2c1CCC2", 35]
]}

Hi there! I need Population Fragmented Nuclei (%) for each item below, if you can.
1. CC(Cc1ccc(O)c(O)c1)C(C)Cc1ccc(O)c(O)c1 (configuration not stated) [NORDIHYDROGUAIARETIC ACID]
2. C=CC(=O)Nc1cc(-n2c(=O)ccc3cnc4ccc(-c5ccc(NS(C)(=O)=O)cc5)cc4c32)ccc1C

1. 20
2. 32

Hi there! I need Population Fragmented Nuclei (%) for each item below, if you can.
1. Oc1cccc(-c2nc(N3CCOCC3)c3oc4ncccc4c3n2)c1 [PI-103]
2. CC(C)c1cc(Nc2nc(N3CCC[C@H](N)C3)ncc2C(N)=O)cc(C(C)C)n1
3. CCCCCNC(=N)N/N=C/c1c[nH]c2ccc(OC)cc12.O=C(O)/C=C\C(=O)O [TEGASEROD MALEATE]

1. 33
2. 29
3. 37

###

For each of the compounds below, state its Total Cell Count.
# Test system: HEK-293T
# measurement-protocol: Multiplex assay against HEK293T
# Type: toxicity, cell-based
# conditions: human, 24 h, 1 µM, compound concentration 1 uM, replicate 1
Give bare numbers.

{"columns": ["compound", "Total Cell Count"],
 "data": [
  ["Cc1c(P(=S)(c2ccccc2)c2ccccc2)n2ccccc2[n+]1C/C=C/c1ccccc1.[Br-]", 217],
  ["N#Cc1cccc(C(=O)Nc2cc(-c3ccccc3)nn2-c2ccccc2)c1", 328],
  ["CC[C@@H]1C(=O)N(C)c2cnc(Nc3ccc(C(=O)NC4CCN(C)CC4)cc3OC)nc2N1C1CCCC1", 553],
  ["CCCCN(CC)c1nc(C)nc2c1c(C)cn2-c1c(C)cc(C)cc1C.Cl", 247],
  ["CCOc1ccn(-c2ccc(F)cc2)c(=O)c1C(=O)Nc1ccc(Oc2ccnc(N)c2Cl)c(F)c1", 625]
]}

Hi there! I need Total Cell Count for each item below, if you can.
1. NC(=O)c1ccc2nc(-c3ccc(C4(N)CCC4)cc3)c(-c3ccccc3)n2n1
2. Cc1ccc(NC(=O)Nc2cc(C(F)(F)F)ccc2F)cc1Nc1ccc2c(c1)NC(=O)/C2=C\c1ccc[nH]1
3. C=CC(=O)Nc1cc(-n2c(=O)ccc3cnc4ccc(-c5ccc(NS(C)(=O)=O)cc5)cc4c32)ccc1C
4. CCCCCNC(=N)N/N=C/c1c[nH]c2ccc(OC)cc12.O=C(O)/C=C\C(=O)O [TEGASEROD MALEATE]
5. CC(/C=C1\SC(=S)N(CCCC(=O)Nc2ccc(C(=O)O)c(O)c2)C1=O)=C\c1ccccc1

691
618
173
196
263

Hi there! I need Total Cell Count for each item below, if you can.
1. Cc1c(Nc2ccc(S(=O)(=O)N3CCN(C)CC3)cc2F)nc2ccc(-c3cnn(C4CC4)c3)cn2c1=O
2. N#CCNC(=O)c1ccc(-c2ccnc(Nc3ccc(N4CCOCC4)cc3)n2)cc1
3. Oc1cccc(-c2nc(N3CCOCC3)c3oc4ncccc4c3n2)c1
4. Cc1c(Nc2ccc(S(=O)(=O)N3CCN(C)CC3)cc2F)nc2ccc(Nc3cnn(C4CC4)c3)cn2c1=O

1: 923; 2: 349; 3: 293; 4: 536

Hi there! I need Total Cell Count for each item below, if you can.
1. CC(C)c1cc(Nc2nc(N3CCC[C@H](N)C3)ncc2C(N)=O)cc(C(C)C)n1
2. CN(c1cc(C(F)(F)F)nc(OCCC(=O)O)n1)c1cccc2c1CCC2
3. CC[C@H](Nc1ncnc2[nH]cnc12)c1nc2cccc(F)c2c(=O)n1-c1ccccc1
4. Cl.NC[C@@H]1O[C@H](C23CC4CC(CC(C4)C2)C3)Cc2c1ccc(O)c2O
5. Cl.Cn1c2c(c3ccc(Cl)c(Cl)c31)C(C#N)C1(CCNCC1)NC2=O (centres undefined)

[234, 193, 613, 389, 747]
